Data provenance: the RNAGym collection of RNA variant scans (doi:10.7554/elife.80360)

Consider the following variants and their measured self-cleavage readings.
B1: Hairpin Ribozyme (parent)
chain: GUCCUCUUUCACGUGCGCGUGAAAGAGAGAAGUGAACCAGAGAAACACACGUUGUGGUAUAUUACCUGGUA

variants of: B1; assay: self-cleavage, relative activity (ratio to wild type); higher = more cleavage; co-transcriptional
Lab note: record just the number, no unit beside it.

Some entries whose results are on file:
sequence-content: GUCCUCUUUCACGUGCGCGUGAAAGAGAGAAGUGAACCAGAGAAACACACGUUGAGGUAUAUUACCGGGUA [U55A U67G]
self-cleavage: 0.27
//
sequence-content: UUCCUCUUUCACGUGCGCGUGAAAGAGAGAGGUGAACCAGAGAAACACACGUUGUGGUAUAUUACCUGGUA [G1U A31G]
self-cleavage: 0.0331
//
sequence-content: GCCCUCUUUCACGUGCGCGUGAAAGAGACAAGUGAACCAGAGAAACACACGUUGUGGUAUAUUACCUGGUA [U2C G29C]
self-cleavage: 0.16
//
sequence-content: GUCCUCUUUCAGGUGCGCGUGAAAGAGGGAAGUGAACCAGAGAAACACACGUUGUGGUAUAUUACCUGGUA [C12G A28G]
self-cleavage: 0.889
//
sequence-content: GUCCUCUUUCACGUGCGCGUGAAAGAGAGAAGUGACCCAGAGAAACAUACGUUGUGGUAUAUUACCUGGUA [A36C C48U]
self-cleavage: 0.0598
//
sequence-content: GUCCUCUUUCACGUGCGCGCGAAAGAGAGAAGUGAACCAGAGAAACACACGUUGUGGUAUAUUAACUGGUA [U20C C65A]
self-cleavage: 1
//
sequence-content: GUCCUCUUUCACGUGCGCGUGAAAGAGAGAAGUGAACCAGAGUAACACACGUUGUGGUAUAUUACUUGGUA [A43U C66U]
self-cleavage: 0.162
//
sequence-content: GUCCUCUUUCACGUGCGCGUGAAAGAGAGAAGUGAACCAGAGAGACACACGUUGUGAUAUAUUACCUGGUA [A44G G57A]
self-cleavage: 0.123

Ask | Quick one: give measured self-cleavage for GUCCUCUUUCACGUGCGCGUGAAAGAGAGAAGUGAACCAGAGAAACACACGUUGUGGUAUACUACCUGGGA [U62C U70G]
Reply | 0.126

Ask | For the variant GUCCUCUUUCACGUGCGCGUGAAAGAGAGAAGUGGACCAGAGAAACACACCUUGUGGUAUAUUACCUGGUA [A35G G51C] , give its reported self-cleavage.
Reply | 0.689

Ask | Dear colleague, please send me the reported self-cleavage for GUCCUCUUUCACGUGCGCGUGAAAGAGCGAAGUGAACCAGAGAAACACACGUUGUGGUAUAUUACUUGGUA [A28C C66U] when you can.
Reply | 0.227

Ask | For the variant GUCCUCUUUCACGUGCUCGUGAAAGAGAGAAGUGAACCAGAGAAACACACGUUGUGGUAUAUUACCUUGUA [G17U G68U] , give its measured self-cleavage value.
Reply | 0.207

Ask | Consider the variant GUCCUCUUUCCCCUGCGCGUGAAAGAGAGAAGUGAACCAGAGAAACACACGUUGUGGUAUAUUACCUGGUA [A11C G13C] . State its measured self-cleavage.
Reply | 0.503

Ask | Supply reported self-cleavage belonging to this variant: GUCCUCUUUCACGUGCGCGUGAAAGAGAGAAGUGAACCAGAGAAACACACGUUGUGGUAUAGUACCUGGUC [U62G A71C]
Reply | 0.281

Ask | Please report the measured self-cleavage for GUCCUCUUUCACGUGAGCGUGAAAGAGAGAAGUGAACCAGAGAAACACACGGUGUGGUAUAUUACCUGGUA [C16A U52G]
Reply | 0.879

Ask | State, in one line, measured self-cleavage of GUCCUCUUUCACGUGCGCCUGAAAGAGAGAAGUGACCCAGAGAAACACACGUUGUGGUAUAUUACCUGGUA [G19C A36C]
Reply | 0.374

Ask | Check the records and state self-cleavage for GUCCCCUUUCACGUGCGCGUGAAAGAGAGAAGUGAACCGGAGAAACACACGUUGUGGUAUAUUACCUGGUA [U5C A39G]
Reply | 0.192

Ask | Give recorded self-cleavage. GUCCUCUUUCACGUGCGUGUGAAAGAGAGAAGUGAACCAGGGAAACACACGUUGUGGUAUAUUACCUGGUA [C18U A41G]
Reply | 1.04
